- measured on: T1, human CD47-Fc fusion protein (R&D systems) (human, UniProt Q08722 19-141)
- T1 construct: Bought (R&D systems); also called Fc-tagged CD47; not shown: Fc part of the bought fusion protein
- assay text: ELISA, binding to CD47
- Set-up: unit not given here
measured endpoint: Bmax
# answer = number (no unit)

Query :: Field request: Bmax | item: 15D3/UIC2 (15D3 heavy chain with UIC2 light chain) (antibody, human IgG1, V domains shown, Light chain shuffle construct; human IgG1 / kappa constant regions) VH: EVKVVESGGVLVRPGGSLKLSCAASGFTFSRYTMSWVRQTPEKRLEWVATISSGGGNTYYPDSVKGRFTVSRDNAMSSLYLQMSSLRSEDTALYYCARYGAGDAWFAYWGQGTLVTVSA VL: DVVMTQTPRSLPVSLGDQASISCRSSQSLLHSNGNTYLHWYLQKPGQSPKLLIYKVSNRFSGVPDRFSGSGSGTDFTLKISRVEAEDLGVYFCSQSTHIPPWTFGGGTKLDIK
Result :: 3.45
